Taken from patent US8669249B2.

target: catalytic domain of Human PARP (Homo sapiens); construct: The catalytic domain of Human PARP was cloned and prepared; made in house; experiment: Biacore surface plasmon resonance affinity assay; assay type: binding; settings: pKD=-log10 KD, KD in mol/L; Biacore T100, 25° C.; read-out: pKD (converted)
Sequence (P09874 788-1014 limits assumed): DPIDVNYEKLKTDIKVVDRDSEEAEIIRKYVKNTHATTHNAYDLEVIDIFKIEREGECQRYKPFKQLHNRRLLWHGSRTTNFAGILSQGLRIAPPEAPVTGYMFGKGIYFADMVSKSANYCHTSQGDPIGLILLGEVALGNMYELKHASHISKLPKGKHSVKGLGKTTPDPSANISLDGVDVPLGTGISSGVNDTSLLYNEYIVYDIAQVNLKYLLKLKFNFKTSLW
Collected Kd values appear next to each entry.

CC1Oc2ccc(CN(C)CC(=O)NCC3CCCCC3)cc2NC1=O (stereo not drawn): 1260 to 10000 nM

Req: Indicate the recorded Kd value for this molecule: `O=C1COc2ccc(C(=O)O)cc2N1`
Resp: ≥ 100000 nM

Req: Indicate the recorded Kd value for this molecule: CCOC(=O)c1ccc(N2CCN(Cc3cc(F)c4c(c3)NC(=O)C(C)O4)CC2)cc1 (stereo not drawn)
Resp: 126 to 1000 nM

Req: Indicate the recorded Kd value for this molecule: CC1Oc2ccc(CNCc3ccccc3)cc2NC1=O (stereo not drawn)
Resp: 1260 to 10000 nM

Req: Indicate the recorded Kd value for this molecule: `O=C1COc2ccc(C(=O)N3CCC(c4ccccc4)CC3)cc2N1`
Resp: ≥ 100000 nM

Req: Indicate the recorded Kd value for this molecule: CC1Oc2ccc(CN3CCN(Cc4ccccc4)C(=O)C3)cc2NC1=O (stereo not drawn)
Resp: > 1000 nM

Req: Indicate the recorded Kd value for this molecule: CC1Oc2ccc(CN3CCN(c4ccc(C(=O)O)cn4)CC3)cc2NC1=O (stereo not drawn)
Resp: 1260 to 10000 nM

Req: Indicate the recorded Kd value for this molecule: CC(=O)Nc1cccc(-c2ccc3c(c2)NC(=O)C(C)O3)c1 (stereo not drawn)
Resp: > 10000 nM

Req: Indicate the recorded Kd value for this molecule: COC(=O)c1ccc(C2CCN(Cc3ccc4c(c3)NC(=O)C(C)O4)CC2)cc1 (stereo not drawn)
Resp: ≤ 10 nM

Req: Indicate the recorded Kd value for this molecule: CC1Oc2ccc(-c3cccc(C(=O)O)c3)cc2NC1=O (stereo not drawn)
Resp: 1260 to 10000 nM

----------
Collected Kd values appear next to each entry.
target: catalytic domain of Human PARP (Homo sapiens); construct: The catalytic domain of Human PARP was cloned and prepared; made in house; test: Biacore surface plasmon resonance affinity assay; type: binding; details: pKD=-log10 KD, KD in mol/L; Biacore T100, 25° C.; read-out: pKD (converted)

CC1Oc2ccc(CN3CCC(c4ccc(C(=O)O)cc4)CC3)cc2NC1=O (stereo not drawn) [Compound 216]: 1.26 to 10 µM

Req: Indicate the recorded Kd value for this molecule: CC1Oc2ccc(CN3CCN(c4nc(-c5ccccc5)ns4)CC3)cc2NC1=O (stereo not drawn) [Compound 39]
Resp: > 10 µM

Req: Indicate the recorded Kd value for this molecule: CC1Oc2cc(CN3CCC(c4ccccc4N)CC3)ccc2NC1=O (stereo not drawn) [Compound 204]
Resp: 12.6 to 79.4 µM

----------
molecular target: catalytic domain of Human PARP (Homo sapiens); construct: The catalytic domain of Human PARP was cloned and prepared; made in house; experiment: Biacore surface plasmon resonance affinity assay; type: binding; conditions: pKD=-log10 KD, KD in mol/L; Biacore T100, 25° C.; read-out: pKD (converted)
Collected Kd values appear next to each entry.

CC1Oc2ccc(CN3CCN(c4ccc(Cl)cn4)CC3)cc2NC1=O (stereo not shown): ≤ 0.01 µM
CC1Oc2ccc(CN(C)CC(=O)NCc3ccc(Cl)cc3)cc2NC1=O (stereo not shown): 1.26 to 10 µM
Cc1cc(CN2CCN(c3ccc(C(=O)NC4CC4)cn3)CC2)cc2c1OC(C)C(=O)N2 (stereo not shown): ≤ 0.01 µM

Kindly consider the entry below.
Req: Print catalytic domain of Human PARP (Homo sapiens) Kd for CC(C)CNC(=O)CN1CCN(Cc2ccc3c(c2)NC(=O)C(C)O3)CC1 (stereo not shown) .
Resp: 1.26 to 10 µM
